Target: T1, BurrH (Burkholderia rhizoxinica, UniProt E5AV36 1-771)
T1 sequence: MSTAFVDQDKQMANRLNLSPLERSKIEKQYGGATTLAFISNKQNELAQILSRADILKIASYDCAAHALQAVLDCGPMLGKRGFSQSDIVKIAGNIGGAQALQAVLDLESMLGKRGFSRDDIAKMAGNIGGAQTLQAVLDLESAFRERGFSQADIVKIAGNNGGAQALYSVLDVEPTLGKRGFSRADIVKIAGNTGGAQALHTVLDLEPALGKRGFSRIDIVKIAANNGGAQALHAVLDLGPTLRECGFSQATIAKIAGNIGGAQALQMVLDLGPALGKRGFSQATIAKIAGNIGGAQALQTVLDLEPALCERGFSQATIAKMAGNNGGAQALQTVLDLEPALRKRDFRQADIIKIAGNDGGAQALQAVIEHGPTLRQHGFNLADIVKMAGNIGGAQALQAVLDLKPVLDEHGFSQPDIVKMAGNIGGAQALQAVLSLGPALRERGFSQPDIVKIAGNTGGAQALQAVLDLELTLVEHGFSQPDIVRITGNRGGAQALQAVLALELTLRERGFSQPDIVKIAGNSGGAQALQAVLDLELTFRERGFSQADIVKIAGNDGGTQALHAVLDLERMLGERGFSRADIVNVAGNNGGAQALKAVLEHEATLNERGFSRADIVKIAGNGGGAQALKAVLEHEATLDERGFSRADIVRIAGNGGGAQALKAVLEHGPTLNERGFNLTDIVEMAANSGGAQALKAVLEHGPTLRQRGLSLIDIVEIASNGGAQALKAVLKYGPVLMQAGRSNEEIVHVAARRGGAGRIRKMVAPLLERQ
Assay: fluorescence anisotropy; FA and ITC: 25 mM HEPES pH 8, 150 mM NaCl, 0.2 mM TCEP, 298 K; SPR: HBS-EP+ (10 mM HEPES pH 7.4, 150 mM NaCl, 3 mM EDTA, 0.05% P20), 298 K
Settings: protein: recombinant; label: 5' 6-FAM
Could you mark each record yes if its Kd falls strictly under 0.05 µM, and no if it equals or exceeds it?

>  <BINDER>
FA duplex 11 (G4 G12 G13) (dsDNA) DNA 1: TTAAGGGAAGCAAGGACGTTATA DNA 2: TATAACGTCCTTGCTTCCCTTAA

>  <ASSIGNED_LABEL>
no

$$$$
>  <BINDER>
FA duplex 6 (C4 C12 T13) (dsDNA) DNA 1: TTAAGCGAAGCAACTACGTTATA DNA 2: TATAACGTAGTTGCTTCGCTTAA

>  <ASSIGNED_LABEL>
yes

$$$$
>  <BINDER>
FA duplex 12 (T4 T12 G13) (dsDNA) DNA 1: TTAAGTGAAGCAATGACGTTATA DNA 2: TATAACGTCATTGCTTCACTTAA

>  <ASSIGNED_LABEL>
no

$$$$

Consider the binder FA duplex 9 (A4 A12 G13) (dsDNA) DNA 1: TTAAGAGAAGCAAAGACGTTATA DNA 2: TATAACGTCTTTGCTTCTCTTAA . Is its Kd strictly less than 0.05 µM? yes

Consider the binder FA duplex 1 (A4 A12 A13) (dsDNA) DNA 1: TTAAGAGAAGCAAAAACGTTATA DNA 2: TATAACGTTTTTGCTTCTCTTAA . Is its Kd strictly less than 0.05 µM? yes

Consider the binder FA duplex 2 (C4 C12 A13) (dsDNA) DNA 1: TTAAGCGAAGCAACAACGTTATA DNA 2: TATAACGTTGTTGCTTCGCTTAA . Is its Kd strictly less than 0.05 µM? yes

Consider the binder FA duplex 3 (G4 G12 A13) (dsDNA) DNA 1: TTAAGGGAAGCAAGAACGTTATA DNA 2: TATAACGTTCTTGCTTCCCTTAA . Is its Kd strictly less than 0.05 µM? no

Data credit: paper PMC4089491
